The reported measurements were obtained from ChEMBL document CHEMBL1152061.

# Tested on: HepG2
# measurement notes: Compound was evaluated for the cytotoxicity against human hepatocellular carcinoma, HepG2 (ATCC HB8065)
# Format: functional
quantity measured: MNTC (µM)

C[C@H]1c2cccc(O)c2C(=O)C2=C(O)[C@]3(O)C(=O)C(C(N)=O)=C(O)[C@@H](N(C)C)[C@@H]3[C@@H](O)[C@@H]21.O
60
O=c1[nH]cc(F)c(=O)[nH]1
100
CCn1cc(C(=O)O)c(=O)c2cnc(N3CCCC3)nc21
120
CO[C@@]12[C@H](COC(N)=O)C3=C(C(=O)C(C)=C(N)C3=O)N1C[C@@H]1N[C@@H]12
0.7
CNC(C)C1CCC(N)C(OC2C(N)CC(N)C(OC3OCC(C)(O)C(NC)C3O)C2O)O1.CNC1C(O)C(OC2C(N)CC(N)C(OC3OC(C(C)N)CCC3N)C2O)OCC1(C)O.CNC1C(O)C(OC2C(N)CC(N)C(OC3OC(CN)CCC3N)C2O)OCC1(C)O.O=S(=O)(O)O (configuration not stated) [GENTAMICIN MIXTURE]
210
Cc1c(C(=O)O)c(O)cc2c1C(=O)c1c(O)c([C@@H]3O[C@H](CO)[C@@H](O)[C@H](O)[C@H]3O)c(O)c(O)c1C2=O
2500
